Assign DTC Dmax (%) to each entry below.
# Test system: EGFR Del19/T790M/C797S (BaF3-DTC cells)
# ASSAY_PROCEDURE: EGFR degradation HTRF assay, BaF3-DTC cells
# Assay type: cell-based
# MEASUREMENT_PARAMETERS: 16h treatment, maximum percentage of degradation
Just the number please, in %, no unit attached.

**Q:** Requested read-out: DTC Dmax (%). Entry: CCc1cc(Nc2ncc(Br)c(Nc3ccc4nc(C)ccc4c3P(C)(C)=O)n2)c(OC)cc1N1CCC(N2CCN(CCc3ccc4c(c3)C(C)(C)C(=O)N4C3CCC(=O)NC3=O)CC2)CC1 (centres unmarked) [Example 711]
**A:** 91.94

**Q:** Requested read-out: DTC Dmax (%). Entry: CCc1cc(Nc2ncc(Br)c(Nc3ccc4nc(C)ccc4c3P(C)(C)=O)n2)c(OC)cc1N1CCC(N2CCN(CCN(C)c3cccc4c3CN(C3CCC(=O)NC3=O)C4=O)CC2)CC1 (centres unmarked) [Example 256]
**A:** 94.38

**Q:** Requested read-out: DTC Dmax (%). Entry: CCc1cc(Nc2ncc(Br)c(Nc3ccc4nccnc4c3P(C)(C)=O)n2)c(OC)cc1N1CCC(N2CCN(CCC3CCN(c4ccc(C5CCC(=O)NC5=O)cc4)CC3)CC2)CC1 (centres unmarked) [Example 23]
**A:** 95.73

**Q:** Requested read-out: DTC Dmax (%). Entry: CCc1cc(Nc2ncc(Br)c(Nc3ccc4nccnc4c3P(C)(C)=O)n2)c(OC)cc1N1CCC(N2CCN(CC3CCN(c4ccc(C5CCC(=O)NC5=O)cc4)C3)CC2)CC1 (centres unmarked) [Example 168]
**A:** 88.5

**Q:** Requested read-out: DTC Dmax (%). Entry: CCc1cc(Nc2ncc(Br)c(Nc3ccc4nc(C)ccc4c3P(C)(C)=O)n2)c(OC)cc1N1CCC(N2CCN(C(=O)[C@H]3C[C@H](Nc4cc(F)c(C5CCC(=O)NC5=O)c(F)c4)C3)CC2)CC1 (some centres unmarked) [Example 209]
**A:** 96.2
